List of growth values.
test system: ACHN renal; assay: NCI-60 one-dose screen, 48 h (100 = growth as untreated, 0 = no growth, -100 = all killed); conditions: 10 µM unless noted
About 83,000 compounds went through this panel and 20% of them were active in at least one assay; those are over-represented in the sample as a whole. The source made the active and inactive calls. Rule for the calls: active = growth percent below 10; inactive = the rest.

| COMPOUND | ASSAYED TARGET | growth |
| --- | --- | --- |
| CC1(C)OC2[C@@H](CNC(=O)NC(=O)NC(=O)CI)O[C@@H](n3cnc4c(NC(=O)Nc5ccccc5)ncnc43)[C@H]2O1 (some centres undefined) | ACHN renal | 66.2% (inactive) |

Notebook: Cc1cccc(C[C@H](NC(=O)Nc2ccc(Cl)cc2F)C(=O)N[C@@H]2C(=O)N3C[C@H](O)C[C@H]3C(=O)N3CCCC[C@H]3C(=O)N[C@@H](C)C(=O)N3C[C@H](C)C[C@H]3C(=O)O[C@H]2C)c1 , growth read as 8.94% (active)

Notebook: N#CC1C(=O)NC(c2ccccc2[N+](=O)[O-])c2sc3c(F)cccc3c21 (centres undefined) , growth read as 65.8% (inactive)

Notebook: CCCCNC(=O)NS(=O)(=O)Cc1ccccc1 , growth read as 106% (inactive)

Notebook: CCOC(=O)c1nn(C2CCCCO2)c2ccc(NS(=O)(=O)c3ccc(C)cc3)cc12 (centres undefined) , growth read as 94.3% (inactive)

Notebook: Cc1cc(C)c(S(=O)(=O)/N=c2/n(-c3ccccc3)nc3n2CCN3C2=NCCN2)c(C)c1 , growth read as 90% (inactive)

Notebook: O=C1CC(C(F)(F)F)Cc2nc3ccc(Br)cc3cc21 (centres undefined) , growth read as 91.5% (inactive)

Notebook: CC(C)[C@H]1CCC2=C3CC[C@]45OC(=O)[C@@]6(CCC(C)(C)C[C@H]64)CC[C@@]5(C)[C@]3(C)CC[C@@]21C , growth read as 72.4% [100 µM] (inactive)

Notebook: CCOC(=O)c1nn(C2CCCCO2)c2ccc(NC(=O)CN3CCCC3)cc12 (centres undefined) , growth read as 101% (inactive)

Notebook: COc1ccc2nc3c(cc2c1)C(=O)CC(C(F)(F)F)C3 (centres undefined) , growth read as 49.2% (inactive)

Notebook: O=[N+]([O-])c1cccc(/C=C/c2ccc3ccccc3n2)c1 , growth read as 53% (inactive)

Notebook: C#C[C@]1(O)CC[C@H]2[C@@H]3CC=C4c5nc(N)sc5CC[C@]4(C)[C@H]3CC[C@@]21C , growth read as 79.6% (inactive)

Notebook: C=C(C)[C@@H]1CC[C@]2(C(=O)NCCCN)CC[C@]3(C)[C@H](CC[C@@H]4[C@@]5(C)CC[C@H](O)C(C)(C)[C@@H]5CC[C@]43C)[C@@H]12 , growth read as -49.2% [100 µM] (active)

Notebook: C[C@]12CCc3nc(Nc4ccccc4)sc3C1=CC[C@@H]1[C@@H]2CC[C@]2(C)/C(=N/NC(N)=S)CC[C@@H]12 , growth read as 31.6% (inactive)

Notebook: CC/C=C(\C)C(CCC)(CN=O)C(=O)OCC (centres undefined) , growth read as 110% (inactive)

Notebook: CCOC(CNC(=O)c1cccc([N+](=O)[O-])c1)OCC , growth read as 108% (inactive)

Notebook: CCOC(=O)Nc1ccc2c(c1)/C(=N\NC(=S)NC)c1ccccc1-2 , growth read as 83.7% (inactive)

Notebook: CC1(C)CC(=O)c2c(ccc(C(=O)C[C@@H](N)CO)c2N)O1 , growth read as 36.3% (inactive)

Notebook: CC(C)CSc1ncnc2nc[nH]c12 , growth read as 90.3% (inactive)
